Every entry's value here was drawn from patent US20170008955A1.

Please provide measured Kd for the entries that follow.
# study-target: T1, cSNK:BSA conjugate (bovine, head-to-tail cyclized; conjugated to BSA carrier)
# T1 construct: also called BSA-cSNK
# T1 sequence (P02769 25-607 limits assumed): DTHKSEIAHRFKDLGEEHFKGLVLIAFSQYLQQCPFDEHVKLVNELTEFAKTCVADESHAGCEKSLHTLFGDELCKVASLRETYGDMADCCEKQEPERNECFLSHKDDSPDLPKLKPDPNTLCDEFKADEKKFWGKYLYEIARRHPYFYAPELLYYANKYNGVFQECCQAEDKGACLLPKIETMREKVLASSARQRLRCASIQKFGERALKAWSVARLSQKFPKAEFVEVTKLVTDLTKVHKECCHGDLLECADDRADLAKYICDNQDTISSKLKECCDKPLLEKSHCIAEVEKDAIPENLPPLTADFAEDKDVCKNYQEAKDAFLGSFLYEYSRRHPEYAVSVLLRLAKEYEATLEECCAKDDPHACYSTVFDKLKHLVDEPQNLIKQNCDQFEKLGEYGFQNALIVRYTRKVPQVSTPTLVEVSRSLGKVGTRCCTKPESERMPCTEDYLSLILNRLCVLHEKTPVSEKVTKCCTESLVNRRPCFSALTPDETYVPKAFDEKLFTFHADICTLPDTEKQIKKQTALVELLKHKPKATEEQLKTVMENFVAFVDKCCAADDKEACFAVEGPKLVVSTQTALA
# test-protocol: BLI (Octet), KD2
Unit nM implied. Number only.

Please give measured Kd of the following entry: 5E3HCDR3-E255D (antibody, IgG1, V domains shown, hu5E3 IgG1 vector mutant; same change as 5E3HCDR3-E209D; also called 5E3-E255D-AFF) VH: QVQLQQSGPEVKKPGASVKISCKASGYIFTSYYIQWVIHAPGQGLEWIGWIYPGNVNTKYNEKFKGKATLTADKSSSTAYMELSSLTSEDTAVYFCARMDYDAHYWGQGTTVTVSS VL: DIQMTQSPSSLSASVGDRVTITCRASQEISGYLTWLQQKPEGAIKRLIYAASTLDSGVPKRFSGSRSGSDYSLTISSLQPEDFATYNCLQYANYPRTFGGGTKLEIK 2.57

Please give measured Kd of the following entry: 5E3HCDR3-Y212F (antibody, IgG1, V domains shown, hu5E3 IgG1 vector mutant) VH: QVQLQQSGPEVKKPGASVKISCKASGYIFTSYYIQWVIHAPGQGLEWIGWIYPGNVNTKYNEKFKGKATLTADKSSSTAYMELSSLTSEDTAVYFCARMDYEAHFWGQGTTVTVSS VL: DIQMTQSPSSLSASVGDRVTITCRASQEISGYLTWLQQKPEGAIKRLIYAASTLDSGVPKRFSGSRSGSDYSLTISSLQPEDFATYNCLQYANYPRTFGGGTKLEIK 8.25
